assay-remarks: gradient 5% acetonitrile 3 min, to 50% in 2 min, to 85% in 15 min, held 3 min, 100 µL/min
condition-notes: column: Zorbax Extend-C18 2.1 x 50 mm; eluents: water / acetonitrile, 0.1% formic acid
measured-quantity: RP-LC retention time (s)

Recorded RP-LC retention time, per entry:
INSERT INTO results (compound, measured_result) VALUES
  ('CCOC(=O)c1sc2nc(C)cc(C)c2c1N(C(C)=O)C(C)=O', 860),
  ('CCC1CN(C(=O)N2CCC(C(=O)NCc3ccco3)CC2)c2cc(C)ccc2O1 (centres undefined)', 872),
  ('CN1CCN(CCCNC(=O)C2CCN(C(=O)c3ccc(-n4ccc5ccccc54)s3)CC2)CC1', 630),
  ('COC(=O)c1ccc(NC(=O)CN2CCc3[nH]c4c(OC)ccc(Cl)c4c(=O)c3C2)cc1', 614),
  ('CC(=O)N1CCN(c2nc(C)cc(N3CCCCC3)n2)CC1', 598);

A. O=[N+]([O-])c1ccc(-c2nc(N3CCCCCC3)c3ccccc3n2)cc1
B. CCn1c(=O)oc2cc(-c3noc(-c4ccc(C(F)(F)F)cc4)n3)ccc21
C. Cc1cc(N2CCN(C)CC2)nc2ccc(NC(=S)NCCC(C)C)cc12
Order these by RP-LC retention time, descending, and give the full ranking. Returns: the labels arranged in the requested order.
B, A, C
(B: 1220 s, A: 820 s, C: 572 s)
